Entries and their measured %Inh follow.
System: ICK;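 further: KINOMEscan kinase panel screen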
conditionsUsed: concentration: 1 μM, replicates: in singlicate; n = 1
Write down the numeric answer in % and omit the unit.

Worked examples follow.
Cc1ccc(O)cc1Nc1ccnc2cc(-c3ccc(CN4CCCCC4)o3)ccc12	0
Cc1cc(-c2c(-c3ccc(F)cc3)ncn2CCCN2CCOCC2)nc(N)n1	0
Cc1ccc(O)cc1Nc1ccnc2ccc(C(C)(C)C)cc12	37
CS(=O)(=O)c1cccc(CNc2nc(Nc3ccc4c(c3)CCC(=O)N4)ncc2C(F)(F)F)c1	0
Cn1cc(-c2cnc(N)c3c(-c4ccc5c(c4)CCN5C(=O)Cc4ccccc4)csc23)cn1	100

## Input Quick one: %Inh of "CC(C)c1nc(-c2ccc(F)c(NS(=O)(=O)c3c(F)cccc3F)c2)c(-c2ccnc(Nc3ccc(N4CCOCC4)nc3)n2)s1" ?
## Output 0

## Input # get_value(readout='%Inh', item= "CN(C)c1ncnc2nc[nH]c12" )
## Output 0

## Input Need %Inh of "CNc1nccc(-c2ccc3c(N)n[nH]c3c2)n1" , thanks.
## Output 0

## Input If you can, please state the reported %Inh value of "O=C(Nc1n[nH]c2nc(-c3cccc(O)c3)ccc12)C1CC1" .
## Output 53
